# CLint scaled at 10 µM values compiled below
experiment: Microsomal (metabolic) stability, rat liver microsomes; details: rat, liver microsomes, pH 7.4

{"columns": ["Compound", "CLint scaled at 10 µM (mL/min/kg)"],
 "data": [
  ["Cl.NCCNS(=O)(=O)c1ccc(NC2CCCCC2)c(NCc2ccccc2)c1 [Compound 38, Hydrochloride]", 27.4],
  ["O=S(=O)(NCCN1CCOCC1)c1ccc(NC2CCCCC2)c(NCc2ccccc2)c1 [Compound 35]", 326],
  ["CNCCNS(=O)(=O)c1ccc(NC2CCCCC2)c(NCc2ccccc2)c1.Cl [Compound 37, Hydrochloride]", 161],
  ["Cl.O=S(=O)(NCCN1CCNCC1)c1ccc(NC2CCCCC2)c(NCc2ccccc2)c1 [Compound 39, Hydrochloride]", 3.4]
]}

---

Assay: Microsomal (metabolic) stability, mouse liver microsomes
Conditions: liver microsomes, pH 7.4
Description: By using the measured microsomal in vitro t1/2, a calculated value for the intrinsic clearance Clint can be determined. […] Liver microsomes (20 mg protein/ml), NADPH regenerating system solutions A & B and 5 mM stock compound solution (100% DMSO) are prepared. […] At each time point, the compound is analysed using LC/MS/MS with the same UPLC system as described above. A standard curve of six points was made to fit the measured concentrations. […] All obtained readouts were processed using Microsoft Excel. […]
Metric Name: CLint scaled at 10 µM (mL/min/kg)

{"columns": ["Molecule", "Reading"],
 "data": [
  ["Cl.O=S(=O)(NCCN1CCNCC1)c1ccc(NC2CCCCC2)c(NCc2ccccc2)c1 [Compound 39, Hydrochloride]", 18],
  ["Cl.NCCNS(=O)(=O)c1ccc(NC2CCCCC2)c(NCc2ccccc2)c1 [Compound 38, Hydrochloride]", 4.8],
  ["CNCCNS(=O)(=O)c1ccc(NC2CCCCC2)c(NCc2ccccc2)c1.Cl [Compound 37, Hydrochloride]", 139],
  ["O=S(=O)(NCCN1CCOCC1)c1ccc(NC2CCCCC2)c(NCc2ccccc2)c1", 1220]
]}

---

assay: Kinetic solubility (turbidimetric method); format: physicochemical; conditions: 10 mM PBS pH 7.4, 2% DMSO, test range 3.125-200 μM, 2 h at 37° C.
Metric Name: Solubility (kinetic)

{"columns": ["Compound", "Metric Name", "Reading"],
 "data": [
  ["COCCNS(=O)(=O)c1ccc(NC2CCCCC2)c(NCc2ccncc2)c1", "Solubility (kinetic)", ">200 µM"],
  ["Cl.NCCNS(=O)(=O)c1ccc(NC2CCCCC2)c(NCc2ccccc2)c1", "Solubility (kinetic)", ">200 µM"],
  ["Nc1cc(S(=O)(=O)NCCN2CCOCC2)ccc1NC1CCCCC1", "Solubility (kinetic)", ">200 µM"],
  ["Cl.O=S(=O)(NCCN1CCNCC1)c1ccc(NC2CCCCC2)c(NCc2ccccc2)c1", "Solubility (kinetic)", ">200 µM"],
  ["COCCNS(=O)(=O)c1ccc(NC2CCCCC2)c(NCc2ccccc2)c1", "Solubility (kinetic)", "25 to 50 µM"]
]}

---

assay: In vivo pharmacokinetics, single iv administration to male Wistar rats (blood concentration); parameters: species or system rat; details: 5 mg/kg iv, 5 minutes after dosing
Metric Name: Plasma concentration in 1 sample (ng/mL)

{"columns": ["Compound", "Reading"],
 "data": [
  ["Cl.O=S(=O)(NCCN1CCNCC1)c1ccc(NC2CCCCC2)c(NCc2ccccc2)c1", 19.6]
]}

---

test: Microsomal (metabolic) stability, rat liver microsomes; details: rat, microsomes, pH 7.4
Metric Name: half-life at 10 µM

{"columns": ["Compound", "Metric Name", "Reading"],
 "data": [
  ["Cl.NCCNS(=O)(=O)c1ccc(NC2CCCCC2)c(NCc2ccccc2)c1 [Compound 38]", "half-life at 10 µM", "2.05 h"]
]}

---

# Solubility (kinetic) values compiled below
test: Kinetic solubility (turbidimetric method); assay type: physicochemical; conditions: 10 mM PBS pH 7.4, 2% DMSO, test range 3.125-200 μM, 2 h at 37° C.
Metric Name: Solubility (kinetic)

{"columns": ["Compound", "Reading"],
 "data": [
  ["Cl.NCCNS(=O)(=O)c1ccc(NC2CCCCC2)c(NCc2ccncc2)c1", "100 to 200 µM"],
  ["CNCCNS(=O)(=O)c1ccc(NC2CCCCC2)c(NCc2ccncc2)c1.Cl", ">200 µM"],
  ["CN(C)CCNS(=O)(=O)c1ccc(NC2CCCCC2)c(N)c1", ">200 µM"],
  ["CNCCNS(=O)(=O)c1ccc(NC2CCCCC2)c(N)c1.Cl", ">200 µM"],
  ["CCOC(=O)c1ccc(NC2CCCCC2)c(N)c1", ">200 µM"]
]}
